Catalogue of binders with associated koff
# TARGET UNDER TEST: T1, purified human CD117 ectodomain (R&D Systems #332-SR) (human, UniProt P10721 26-524)
# T1 construct: extracellular domain; Bought protein; also called c-kit; purified recombinant human CD117 ectodomain
# T1 sequence (P10721 26-524): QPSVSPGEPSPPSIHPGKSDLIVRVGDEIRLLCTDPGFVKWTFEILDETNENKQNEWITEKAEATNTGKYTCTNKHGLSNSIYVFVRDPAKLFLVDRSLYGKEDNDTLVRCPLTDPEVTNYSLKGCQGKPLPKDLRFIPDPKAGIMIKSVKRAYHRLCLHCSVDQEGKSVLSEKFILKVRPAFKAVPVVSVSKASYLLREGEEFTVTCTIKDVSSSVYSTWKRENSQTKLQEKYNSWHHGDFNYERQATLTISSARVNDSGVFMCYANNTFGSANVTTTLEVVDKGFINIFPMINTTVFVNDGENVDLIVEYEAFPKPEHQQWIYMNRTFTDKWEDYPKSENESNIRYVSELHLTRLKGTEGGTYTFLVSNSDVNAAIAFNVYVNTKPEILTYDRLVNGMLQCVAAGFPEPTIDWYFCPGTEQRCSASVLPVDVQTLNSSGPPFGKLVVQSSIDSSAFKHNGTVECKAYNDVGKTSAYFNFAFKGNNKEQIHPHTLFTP
# MEASUREMENT NOTES: BLI, IgG on anti-human Fc sensor, 33 and 11 nM ectodomain;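 further: Kd, kon and koff are apparent values, with Kd reported as the apparent monovalent affinity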
Answer shape: numeric part, then the unit.

binder="HC-81/LC-81 (Ab81) (antibody, IgG1, V domains shown, Purified human antibody tested as an IgG1; hIgG1/hKappa; also called Antibody 81) VH: QVQLVQSGAAVKKPGESLKISCKGSGYRFTTYWIGWVRQMPGKGLEWMGIIYPGDSDTRYSPSFQGQVTISAGKSISTAYLQWSSLKASDTAMYYCARHGRGYNGYEGAFDIWGQGTMVTVSS VL: DIQLTQSPSSLSASVGDRVTITCRASQGVISALAWYQQKPGKAPKLLIYDASTLESGVPSRFSGSGSGTDFTLTISSLQPEDFATYYCQQFNSYPLTFGGGTKVEIK" value_observed="0.000252 s⁻¹"
binder="HC-246/LC-246 (Ab246) (antibody, V domains shown, IgG on anti-human Fc sensors; hIgG1/hKappa) VH: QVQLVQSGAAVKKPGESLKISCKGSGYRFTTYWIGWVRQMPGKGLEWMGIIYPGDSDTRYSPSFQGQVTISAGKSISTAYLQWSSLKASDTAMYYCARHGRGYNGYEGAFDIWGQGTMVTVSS VL: DIQMTQSPSSLSASVGDRVTITCRASQGIGSALAWYQQKPGKAPKLLIYDASTLESGVPSRFSGSGSGTDFTLTISSLQPEDFATYYCQQFNGYPLTFGQGTRLEIK" value_observed="0.000255 s⁻¹"

Now let's try a different one.
# binder HC-1/LC-1 (Ab1) (antibody, IgG1, V domains shown, Purified IgG (IgG1); also called 001; CK6 derivative Ab1) VH: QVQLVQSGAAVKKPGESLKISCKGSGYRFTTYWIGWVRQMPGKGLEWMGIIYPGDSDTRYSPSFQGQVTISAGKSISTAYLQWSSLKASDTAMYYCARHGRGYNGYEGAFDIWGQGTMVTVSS VL: AIQLTQSPSSLSASVGDRVTITCRASQGVSSALAWYQQKPGKAPKLLIYDASSLESGVPSRFSGSGSGTDFTLTISSLQPEDFATYYCQQFNSYPLTFGGGTKVEIK ; its koff = 0.00227 s⁻¹
